MEASUREMENT TARGET: human histamine H3 receptor (Homo sapiens)
TEST METHOD NOTES: CRE-SPAP gene transcription in forskolin-stimulated CHO-H3-SPAP cells
ASSAY SETUP: Log KD values, CRE-SPAP; agonist N-α-methylhistamine
OBSERVED PROPERTY: Kd (µM)

Known Kd results, listed for orientation:
COMPOUND | Kd (µM)
Cc1ccc(/C(=C\CN2CCCC2)c2ccccn2)cc1 | 4.57
CN(C)CCC(c1ccc(Cl)cc1)c1ccccn1 (stereo not shown) | 3.09

A: Br.Br.c1nc(CCCC2CCNCC2)c[nH]1
B: CC(C1=C(CCN(C)C)Cc2ccccc21)c1ccccn1 (stereo not shown)
Task: Pick one: A or B . Which has the bigger Kd number? API: response body contains the label of the selected item.
Output: B

====

MEASUREMENT TARGET: human histamine H3 receptor (Homo sapiens)
TEST METHOD NOTES: CRE-SPAP gene transcription in forskolin-stimulated CHO-H3-SPAP cells
ASSAY SETUP: CRE-SPAP; agonist immepip; 3 antagonist concentrations
OBSERVED PROPERTY: Schild slope
Answer using only a numeral; do not append any unit.

Known Schild slope results, listed for orientation:
COMPOUND | VALUE
NC(=NCc1ccc(Cl)cc1)SCCCc1cnc[nH]1 | 1.05
S=C(NC1CCCCC1)N1CCC(c2cnc[nH]2)CC1 [thioperamide] | 1.06
C[C@H]1[C@H]2CC[C@H]3[C@@H]4CC=C5C[C@@H](N(C)C)CC[C@]5(C)[C@H]4CC[C@]23CN1C | 1.09

# ---- query compound ----
Task: Need Schild slope of c1cc(CN2CCCCC2)cc(OCCCNc2nc3ccccc3s2)c1 , thanks.
Output: 1.18

====

MEASUREMENT TARGET: human histamine H3 receptor (Homo sapiens)
TEST METHOD NOTES: CRE-SPAP gene transcription in forskolin-stimulated CHO-H3-SPAP cells
ASSAY SETUP: pKD values, CRE-SPAP; agonist VUF 8430
OBSERVED PROPERTY: Kd (nM)
Dear colleague, please return just the value in nM, with no unit written.

Task: Need Kd of C[C@H]1[C@H]2CC[C@H]3[C@@H]4CC=C5C[C@@H](N(C)C)CC[C@]5(C)[C@H]4CC[C@]23CN1C , thanks.
Output: 7.08

====

MEASUREMENT TARGET: human histamine H3 receptor (Homo sapiens, UniProt Q9Y5N1)
Sequence (Q9Y5N1 whole entry): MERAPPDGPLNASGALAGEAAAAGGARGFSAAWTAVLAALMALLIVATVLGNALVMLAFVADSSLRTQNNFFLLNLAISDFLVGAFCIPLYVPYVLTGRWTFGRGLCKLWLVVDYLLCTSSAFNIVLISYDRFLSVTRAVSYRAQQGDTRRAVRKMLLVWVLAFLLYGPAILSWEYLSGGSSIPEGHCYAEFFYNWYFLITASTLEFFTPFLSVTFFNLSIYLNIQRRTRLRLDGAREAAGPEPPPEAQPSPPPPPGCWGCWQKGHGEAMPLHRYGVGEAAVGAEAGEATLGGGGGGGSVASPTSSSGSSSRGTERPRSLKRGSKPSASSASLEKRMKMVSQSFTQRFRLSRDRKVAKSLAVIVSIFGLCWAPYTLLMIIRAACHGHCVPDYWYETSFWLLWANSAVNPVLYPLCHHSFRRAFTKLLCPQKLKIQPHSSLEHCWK
TEST METHOD NOTES: CRE-SPAP gene transcription in forskolin-stimulated CHO-H3-SPAP cells
ASSAY SETUP: Log KD values, CRE-SPAP; agonist R-α-methylhistamine
pKd: −log10 of the molar value.
OBSERVED PROPERTY: pKd

Known pKd results, listed for orientation:
MOLECULE | VALUE
CN(C)CCC(c1ccc(Cl)cc1)c1ccccn1 (stereo not shown) [chlorpheniramine] | 5.44
CC(C1=C(CCN(C)C)Cc2ccccc21)c1ccccn1 (stereo not shown) [dimethindine, dimethindene] | 5.65

1: Cc1ccc(/C(=C\CN2CCCC2)c2ccccn2)cc1 [triprolidine]
2: Br.Br.c1nc(CCCC2CCNCC2)c[nH]1 [VUF 5681]
Task: Hello, I am sorting some records. Could you say if 1 or 2 has the smaller pKd value? API: response body contains the label of the selected item.
Output: 1
(1: 5.58, 2: 7.60)
